tested on: HIV-1 (strain IIIB); test: Antiviral activity assay in MT4 cells (propidium iodide based); type: cell-based; settings: Human immunodeficiency virus 1, IIIB; wild type HIV-1 virus, MT4 cells; read-out: Wildtype virus - IC50
pIC50: −log10 of the molar value.
Reported Endpoint: pIC50

Molecule | Result
CC(C)CN(C[C@@H](O)[C@H](Cc1ccc(OCc2cccnc2)cc1)NC(=O)O[C@H]1CO[C@H]2OCC[C@H]21)S(=O)(=O)c1ccc2c(c1)OCO2 [Compound 52] | 7.00 to 8.00
Cc1noc(C)c1COc1ccc(C[C@H](NC(=O)O[C@H]2CO[C@H]3OCC[C@H]32)[C@H](O)CN(CC(C)C)S(=O)(=O)c2ccc3c(c2)OCO3)cc1 [Compound 385] | 8.00 to 9.00
Cc1cc(S(=O)(=O)N(CC(C)C)C[C@@H](O)[C@H](Cc2ccc(OCc3cccc(C#N)c3)cc2)NC(=O)O[C@H]2CO[C@H]3OCC[C@H]32)ccc1O [Compound 346] | 7.00 to 8.00
CC(C)CN(CC(O)[C@H](Cc1ccc(OCc2ccccn2)cc1)NC(=O)O[C@H]1CO[C@H]2OCC[C@H]21)S(=O)(=O)c1ccc2c(c1)OCCO2 (stereo in doubt) [Compound 337] | 8.00 to 9.00
CC(C)CN(C[C@@H](O)[C@H](Cc1ccc(OCc2ccccc2C#N)cc1)NC(=O)O[C@H]1CO[C@H]2OCC[C@H]21)S(=O)(=O)c1ccc2c(c1)OCO2 [Compound 382] | 8.00 to 9.00

[ask] What measured pIC50 goes with CC(C)(CCCC#N)CN(C[C@@H](O)[C@H](Cc1ccc(OCc2ccccc2)cc1)NC(=O)O[C@H]1CCOC1)S(=O)(=O)c1ccc2c(c1)OCO2 [Compound 307] ?
[reply] 7.00 to 8.00

[ask] What measured pIC50 goes with CC(C)CN(C[C@@H](O)[C@H](Cc1ccc(OCCCO)cc1)NC(=O)O[C@H]1CO[C@H]2OCC[C@H]21)S(=O)(=O)c1ccc2c(c1)OCO2 [Compound 319] ?
[reply] 8.00 to 9.00

[ask] What measured pIC50 goes with CC(C)CN(C[C@@H](O)[C@@H](N)Cc1ccc(OCc2ccccc2)cc1)S(=O)(=O)c1ccc2c(c1)OCO2 [Compound 308] ?
[reply] 7.00 to 8.00

[ask] What measured pIC50 goes with CC(C)CN(C[C@@H](O)[C@H](Cc1ccc(OS(=O)(=O)c2ccc([N+](=O)[O-])cc2)cc1)NC(=O)O[C@@H]1CO[C@H]2OCC[C@H]21)S(=O)(=O)c1ccc([N+](=O)[O-])cc1 [Compound 297] ?
[reply] 7.00 to 8.00

[ask] What measured pIC50 goes with CNC(=O)OCCCC(C)(C)CN(C[C@@H](O)[C@H](Cc1ccc(OCc2ccccc2)cc1)NC(=O)OC1CCOC1)S(=O)(=O)c1ccc2c(c1)OCO2 (some centres unmarked) [Compound 362] ?
[reply] 7.00 to 8.00

[ask] What measured pIC50 goes with CC(C)CN(C[C@@H](O)[C@H](Cc1ccc(OCCCCN(C)C)cc1)NC(=O)O[C@H]1CO[C@H]2OCC[C@H]21)S(=O)(=O)c1ccc2c(c1)OCO2 [Compound 275] ?
[reply] 7.00 to 8.00

---

System: EP13 multi protease inhibitor resistant virus
Assay: Anti-viral activity against resistant virus EP13 in MT4 cells
Format: cell-based, HIV-1
Conditions: EP13 multi protease inhibitor resistant virus, MT4 cells; read-out: EP13 mutant IC50
Method: Exponentially growing MT4 cells were harvested and centrifuged at 1000 rpm for 10 min in a Jouan centrifuge (model CR 4 12). […] Cell aliquots were infected by the addition of HIV-1 (strain IIIB) diluted to give a viral multiplicity of infection of 100×TCID50. […] Cell infection was allowed to proceed for 1 hr at 37° in a tissue culture incubator with humidified 5% CO2 atmosphere. […] The plates were analyzed in an automated assay instrument (Screen Machine, Idexx Laboratories). […]
pIC50: −log10 of the molar value.
Reported Endpoint: pIC50

# count of solved cases: 2
Structure | pIC50
CC(C)CN(C[C@@H](O)[C@H](Cc1ccc(OCCCNS(C)(=O)=O)cc1)NC(=O)O[C@H]1CO[C@H]2OCC[C@H]21)S(=O)(=O)c1ccc2c(c1)OCO2 | 8.00 to 9.00
CC(C)CN(C[C@@H](O)[C@H](Cc1ccc(OCc2cccc(C#N)c2)cc1)NC(=O)O[C@H]1CO[C@H]2OCC[C@H]21)S(=O)(=O)c1ccc2c(c1)OCO2 | > 9.00

Proceeding to the next compound to report its pIC50.
[ask] What measured pIC50 goes with "COc1ccc(CCOc2ccc(C[C@H](NC(=O)O[C@H]3CO[C@H]4OCC[C@H]43)[C@H](O)CN(CC(C)C)S(=O)(=O)c3ccc4c(c3)OCO4)cc2)cc1" ?
[reply] 7.00 to 8.00

---

system: HIV-1 (strain IIIB); assay: Antiviral activity assay in MT4 cells (propidium iodide based); assay type: cell-based; conditions: Human immunodeficiency virus 1, IIIB; wild type HIV-1 virus, MT4 cells; read-out: Wildtype virus - IC50
compounds and their reported IC50

# count of solved cases: 2
Structure | IC50
CC(C)CN(C[C@@H](O)[C@H](Cc1ccc(OCCO)cc1)NC(=O)O[C@H]1CO[C@H]2OCC[C@H]21)S(=O)(=O)c1ccc2c(c1)OCO2 | 1 to 10 nM
CC(C)CN(C[C@@H](O)[C@H](Cc1ccc(OCc2ccc3ccccc3c2)cc1)NC(=O)O[C@H]1CO[C@H]2OCC[C@H]21)S(=O)(=O)c1ccc2c(c1)OCO2 | 1 to 10 nM

[ask] What measured IC50 goes with "CC(C)CN(C[C@@H](O)[C@H](Cc1ccc(OCCc2ccccc2)cc1)NC(=O)O[C@H]1CO[C@H]2OCC[C@H]21)S(=O)(=O)c1ccc2c(c1)OCO2" ?
[reply] < 1 nM

[ask] What measured IC50 goes with "CC(C)CN(C[C@@H](O)[C@H](Cc1ccc(OCCN/C(=N/C#N)Oc2ccccc2)cc1)NC(=O)O[C@H]1CO[C@H]2OCC[C@H]21)S(=O)(=O)c1ccc2c(c1)OCO2" ?
[reply] 1 to 10 nM

[ask] What measured IC50 goes with "CC(C)CN(C[C@@H](O)[C@H](Cc1ccc(OCCCNc2ccc(C#N)cn2)cc1)NC(=O)O[C@H]1CO[C@H]2OCC[C@H]21)S(=O)(=O)c1ccc2c(c1)OCO2" ?
[reply] 1 to 10 nM

---

molecules and their reported IC50
test system: HIV-1 (strain IIIB); test: Antiviral activity assay in MT4 cells (propidium iodide based); format: cell-based; settings: Human immunodeficiency virus 1, IIIB; wild type HIV-1 virus, MT4 cells; read-out: Wildtype virus - IC50

# count of solved cases: 6
Structure | Result
CC(C)CN(C[C@@H](O)[C@H](Cc1ccc(OCC(N)=O)cc1)NC(=O)O[C@H]1CO[C@H]2OCC[C@H]21)S(=O)(=O)c1ccc2c(c1)OCO2 | 10 to 100 nM
CC(C)CN(C[C@@H](O)[C@H](Cc1ccc(OCc2ccccc2CS(=O)(=O)c2ccccc2)cc1)NC(=O)O[C@H]1CO[C@H]2OCC[C@H]21)S(=O)(=O)c1ccc2c(c1)OCO2 | 1 to 10 nM
COC(=O)NCCOc1ccc(C[C@H](NC(=O)O[C@H]2CO[C@H]3OCC[C@H]32)[C@H](O)CN(CC(C)C)S(=O)(=O)c2ccc3c(c2)OCO3)cc1 | 1 to 10 nM
CC(C)CN(C[C@@H](O)[C@H](Cc1ccc(OCCCN(C)C)cc1)NC(=O)O[C@H]1CO[C@H]2OCC[C@H]21)S(=O)(=O)c1ccc2c(c1)OCO2 | 10 to 100 nM
CC(C)CN(C[C@@H](O)[C@H](Cc1ccc(OCCCn2cccn2)cc1)NC(=O)O[C@H]1CO[C@H]2OCC[C@H]21)S(=O)(=O)c1ccc2c(c1)OCO2 | 1 to 10 nM
CNC(=O)COc1ccc(C[C@H](NC(=O)O[C@H]2CO[C@H]3OCC[C@H]32)[C@H](O)CN(CC(C)C)S(=O)(=O)c2ccc3c(c2)OCO3)cc1 | 10 to 100 nM

[ask] What measured IC50 goes with "CC(C)CN(C[C@@H](O)[C@H](Cc1ccc(OCC#N)cc1)NC(=O)O[C@H]1CO[C@H]2OCC[C@H]21)S(=O)(=O)c1ccc2c(c1)OCO2" ?
[reply] 10 to 100 nM

[ask] What measured IC50 goes with "CC(C)CN(C[C@@H](O)[C@H](Cc1ccc(Oc2ccc([N+](=O)[O-])cn2)cc1)NC(=O)O[C@H]1CO[C@H]2OCC[C@H]21)S(=O)(=O)c1ccc2c(c1)OCO2" ?
[reply] 1 to 10 nM

[ask] What measured IC50 goes with "CCOC(CCOC(=O)N[C@@H](Cc1ccc(OCc2ccccc2)cc1)[C@H](O)CN(CC(C)C)S(=O)(=O)c1ccc2c(c1)OCO2)OCC" ?
[reply] 10 to 100 nM

[ask] What measured IC50 goes with "CC(C)CN(C[C@@H](O)[C@H](Cc1ccc(OC(=O)NC(C)C)cc1)NC(=O)O[C@H]1CO[C@H]2OCC[C@H]21)S(=O)(=O)c1ccc2c(c1)OCO2" ?
[reply] 1 to 10 nM

[ask] What measured IC50 goes with "CC(C)CN(C[C@@H](O)[C@H](Cc1ccc(OCc2nnsc2Cl)cc1)NC(=O)O[C@H]1CO[C@H]2OCC[C@H]21)S(=O)(=O)c1ccc2c(c1)OCO2" ?
[reply] 1 to 10 nM
